Listing of entries alongside the reported Aglycone of Cmpd 1 (HPLC area %) 2 Week.
# test.name: Stability of hydrochloride salts of telavancin on storage (HPLC area % of pseudoaglycone and aglycone impurities)
# Assay type: physicochemical
# reported.conditions: stored at 25° C. for 2 weeks, glass vials
The reply should contain only the number, in HPLC area %.

Fill in the blank: the reported Aglycone of Cmpd 1 (HPLC area %) 2 Week of CCCCCCCCCCNCCN[C@@]1(C)C[C@H](O[C@H]2[C@H](Oc3c4cc5cc3Oc3ccc(cc3Cl)[C@@H](O)[C@@H](NC(=O)[C@@H](CC(C)C)NC)C(=O)N[C@@H](CC(N)=O)C(=O)N[C@H]5C(=O)N[C@H]3C(=O)N[C@H](C(=O)N[C@H](C(=O)O)c5cc(O)c(CNCP(=O)(O)O)c(O)c5-c5cc3ccc5O)[C@H](O)c3ccc(c(Cl)c3)O4)O[C@H](CO)[C@@H](O)[C@@H]2O)O[C@@H](C)[C@H]1O [5.60, telavancin] is ____. 0.41

Another molecule to check: CCCCCCCCCCNCCN[C@@]1(C)C[C@H](O[C@H]2[C@H](Oc3c4cc5cc3Oc3ccc(cc3Cl)[C@@H](O)[C@@H](NC(=O)[C@@H](CC(C)C)NC)C(=O)N[C@@H](CC(N)=O)C(=O)N[C@H]5C(=O)N[C@H]3C(=O)N[C@H](C(=O)N[C@H](C(=O)O)c5cc(O)c(CNCP(=O)(O)O)c(O)c5-c5cc3ccc5O)[C@H](O)c3ccc(c(Cl)c3)O4)O[C@H](CO)[C@@H](O)[C@@H]2O)O[C@@H](C)[C@H]1O [4.59, telavancin] 0.17

====

# test.name: Stability of hydrochloride salts of telavancin on storage (HPLC area % of pseudoaglycone and aglycone impurities)
# Assay type: physicochemical
# reported.conditions: before storage at 25° C.
Listing of entries alongside the reported Aglycone of Cmpd 1 (HPLC area %) Initial.
The reply should contain only the number, in HPLC area %.

CCCCCCCCCCNCCN[C@@]1(C)C[C@H](O[C@H]2[C@H](Oc3c4cc5cc3Oc3ccc(cc3Cl)[C@@H](O)[C@@H](NC(=O)[C@@H](CC(C)C)NC)C(=O)N[C@@H](CC(N)=O)C(=O)N[C@H]5C(=O)N[C@H]3C(=O)N[C@H](C(=O)N[C@H](C(=O)O)c5cc(O)c(CNCP(=O)(O)O)c(O)c5-c5cc3ccc5O)[C@H](O)c3ccc(c(Cl)c3)O4)O[C@H](CO)[C@@H](O)[C@@H]2O)O[C@@H](C)[C@H]1O [2.42, telavancin] = 0.03
CCCCCCCCCCNCCN[C@@]1(C)C[C@H](O[C@H]2[C@H](Oc3c4cc5cc3Oc3ccc(cc3Cl)[C@@H](O)[C@@H](NC(=O)[C@@H](CC(C)C)NC)C(=O)N[C@@H](CC(N)=O)C(=O)N[C@H]5C(=O)N[C@H]3C(=O)N[C@H](C(=O)N[C@H](C(=O)O)c5cc(O)c(CNCP(=O)(O)O)c(O)c5-c5cc3ccc5O)[C@H](O)c3ccc(c(Cl)c3)O4)O[C@H](CO)[C@@H](O)[C@@H]2O)O[C@@H](C)[C@H]1O [3.68, telavancin] = 0.06

Fill in the blank: the reported Aglycone of Cmpd 1 (HPLC area %) Initial of CCCCCCCCCCNCCN[C@@]1(C)C[C@H](O[C@H]2[C@H](Oc3c4cc5cc3Oc3ccc(cc3Cl)[C@@H](O)[C@@H](NC(=O)[C@@H](CC(C)C)NC)C(=O)N[C@@H](CC(N)=O)C(=O)N[C@H]5C(=O)N[C@H]3C(=O)N[C@H](C(=O)N[C@H](C(=O)O)c5cc(O)c(CNCP(=O)(O)O)c(O)c5-c5cc3ccc5O)[C@H](O)c3ccc(c(Cl)c3)O4)O[C@H](CO)[C@@H](O)[C@@H]2O)O[C@@H](C)[C@H]1O [4.59, telavancin] is ____. 0.10
